Listed here are molecules together with their documented %Inh.
system: CSF1R-autoinhibited; conditions: concentration: 1 μM, replicates: in singlicate; n = 1;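 further: KINOMEscan kinase panel screen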
Lab book: enter the figure in %, no units written.

Below, 3 molecules whose answers are already recorded.
Entry under test: CNc1nc(-c2ccc3c(N)n[nH]c3c2)cc(N2C[C@@H](C(=O)NC3CCCCC3)OC[C@H]2C)n1 [GSK2375584] . Its %Inh was 37

Entry under test: Cc1nccc(-c2c(-c3ccc(F)cc3)ncn2CCCN2CCOCC2)n1.Cl [SB-282975] . Its %Inh was 0

Entry under test: O=C(Nc1n[nH]c2nc(-c3cccs3)c(Br)cc12)C1CC1 [SB-735297] . Its %Inh was 0

Next:
Entry under test: Cc1ccc(NC(=O)Nc2ccc(Cl)c(C(F)(F)F)c2)cc1-c1ccc(C(=O)Nc2ccncc2)cc1 [GSK1398470] . Its %Inh was 0

Entry under test: CS(=O)(=O)CCNCc1nc(-c2ccc3ncnc(Nc4ccc(OCc5ccccc5)c(Cl)c4)c3c2)cs1.Cl [GW582764] . Its %Inh was 48

Entry under test: `COc1ccc(-c2coc3ccc(-c4nnc(C)o4)cc23)cc1` . Its %Inh was 7

Entry under test: CCn1c(-c2ccccc2)nc2cnccc21 [SB-733416] . Its %Inh was 0

Entry under test: O=C1NC(=O)C(c2ccc(Cl)cc2)=C1Nc1ccc(O)cc1 [SB-340867] . Its %Inh was 0

Entry under test: FC(F)(F)c1ccccc1-c1cc(-c2c[nH]nc2-c2ccccn2)ccn1 [GW679396] . Its %Inh was 0

Entry under test: Cc1ccc(NC(=O)Nc2ccccc2F)cc1-c1ccc(C(=O)Nc2ccncc2)cc1 [GSK1398477] . Its %Inh was 0

Entry under test: Cn1cnc2c(N)ncnc21 [SKF-97623] . Its %Inh was 41

Entry under test: c1ccc(-c2ccnc3[nH]ccc23)cc1 [SB-693578] . Its %Inh was 47

Entry under test: `CCc1ccc(-c2ccc3c(c2)-c2n[nH]cc2S(=O)(=O)N3C)cc1` . Its %Inh was 5

Entry under test: COC(=O)C(NC(=O)NC1CCN(c2ccnc(Nc3ccc(F)cc3)n2)C1)c1ccccc1 (stereo not shown) [GSK1379712] . Its %Inh was 34

Entry under test: COC(=O)c1cccc(NC(=O)NC2CCN(c3ccnc(Nc4ccc(OC)cc4)n3)C2)c1 (stereo not shown) [GSK1379746] . Its %Inh was 28

Entry under test: O=c1cc(N2CCOCC2)nc2n(Cc3ccccc3F)ccn12 [GSK2297428] . Its %Inh was 7

---

test system: CDK5; conditions: concentration: 1 μM, replicates: in singlicate; n = 1
measuredMetric: %Inh

Below, 3 compounds whose answers are already recorded.
Entry under test: `COc1ccc(Nc2nccc(-c3ccc(NC(=O)c4cc5cc(F)ccc5[nH]4)cc3)n2)cc1` . Its %Inh was 0%

Entry under test: `Nc1nccc(-c2c(-c3ccc(F)cc3)ncn2C2CCN(Cc3ccccc3)CC2)n1` . Its %Inh was 16%

Entry under test: COc1ccc(Nc2nccc(N3CCC(NC(=O)C(C)c4ccc(Cl)cc4)C3)n2)cc1 (stereo not shown) . Its %Inh was 0%

Next:
Entry under test: `Cc1cccc2c(-c3ccncn3)c(-c3ccc(F)cc3)nn12` . Its %Inh was 0%

Entry under test: Cn1cncc1C(=O)NC1CCN(c2ccnc(Nc3ccc(F)cc3)n2)C1 (stereo not shown) . Its %Inh was 0%

Entry under test: `CCn1c(-c2ccccc2)nc2cnccc21` . Its %Inh was 0%

Entry under test: `Cc1ccc(NC(=O)Nc2ccc(Cl)cc2)cc1-c1ccc(C(=O)Nc2ccncc2)cc1` . Its %Inh was 0%

Entry under test: `Fc1ccc(-c2nc[nH]c2-c2ccncc2)cc1` . Its %Inh was 0%

Entry under test: COc1ccc(Nc2nccc(N3CCC(NC(=O)c4cc5ccccc5s4)C3)n2)cc1 (stereo not shown) . Its %Inh was 0%

Entry under test: `CC(=O)c1c(C)c2cnc(Nc3ccc(N4CCNCC4)cn3)nc2n(C2CCCC2)c1=O` . Its %Inh was 0%

Entry under test: `Cn1cnc2c(N)ncnc21` . Its %Inh was 0%

Entry under test: `COc1ccc(CSc2nnc(-c3ccc4c(c3)CCO4)o2)cc1` . Its %Inh was 0%

Entry under test: `COc1ccc2cc(-c3nc(-c4ccccc4C(C)C)[nH]c3-c3ccncc3)ccc2c1` . Its %Inh was 0%

Entry under test: `Fc1ccc(-c2nc3n(c2-c2ccncc2)CCS3)cc1` . Its %Inh was 6%

Entry under test: `CNC(=O)c1ccc(C)c(-n2c(C)cc(OCc3ccc(F)cc3F)c(Br)c2=O)c1` . Its %Inh was 0%

Entry under test: `Cc1ccc(NC(=O)Nc2ccccc2F)cc1-c1ccc(C(=O)Nc2ccncc2)cc1` . Its %Inh was 5%

Entry under test: `O=C1NC(=O)C(c2ccc(Cl)cc2)=C1Nc1cccc(Cl)c1` . Its %Inh was 0%

Entry under test: COc1ccc(Nc2nccc(N3CCC(NC(=O)C(C)c4ccc(Cl)cc4)CC3)n2)cc1 (stereo not shown) . Its %Inh was 0%

Entry under test: `Cc1cnc(N)c(/C=C/c2cncc(C(=O)NCCc3ccc(Cl)cc3Cl)c2)c1.Cl` . Its %Inh was 0%
